- Test description: Toxicity liver stage against HepG2, at 10uM
- Format: cell-based
- Design: test concentration 10 uM, cell line HepG2-A16-CD81EGFP
- Measurement conditions: human, HepG2-A16-CD81EGFP cells; read-out: INHIBITION
Metric: cytotoxicity at 10 µM (%)

molecule=Cc1cc(-c2cnc(N3CCNC(=O)C3)nc2-c2ccoc2C)on1 numeric_value=-25.5
molecule="CN1CCC(C(=O)N2CCCN(c3cccnn3)CC2)C1 (stereo unspecified)" numeric_value=-8.82
molecule=CCNC(=O)[C@@H]1C[C@@H](NC(=O)c2cnc[nH]c2=O)CN1Cc1ccsc1 numeric_value=-6.94
molecule="c1cc(CNCC2CNc3ccnn3C2)cc(N2CCCCC2)n1 (stereo unspecified)" numeric_value=6.91
molecule=Cc1cc(N2CCCN(C(=O)Cc3cccnc3)CC2)ccn1 numeric_value=2.5
molecule=C/C=C(\C)CN1CCC2(CCC(=O)N2OCc2ccccc2F)CC1 numeric_value=5.24
molecule=CCN1CCCN(C(=O)c2ccc(NC(=O)CC(C)C)c(C)c2)CC1 numeric_value=-8.04
molecule=Cc1cnc(CCNC(=O)NCCOc2ncccc2Cl)s1 numeric_value=9.18
molecule="CCc1nccn1C1CCCN(C(=O)CCCNc2ncccn2)C1 (stereo unspecified)" numeric_value=-1.3
molecule="CCc1ccc(OCC(O)CN2CCN(S(C)(=O)=O)CC2)cc1 (stereo unspecified)" numeric_value=7.07
molecule="O=C1C(Nc2nccn3cnnc23)CCCN1c1ccccc1Cl (stereo unspecified)" numeric_value=9.05

----------
Measured cytotoxicity at 10 µM by item
- Test description: Toxicity liver stage against HepG2, at 10uM
- Format: cell-based
- Parameters: test concentration 10 uM, cell line HepG2-A16-CD81EGFP
- Measurement conditions: human, HepG2-A16-CD81EGFP cells; read-out: INHIBITION
Metric: cytotoxicity at 10 µM (%)

molecule=COc1ccc(C(=O)N(C)Cc2cc(C)on2)c(OC)c1 metric="cytotoxicity at 10 µM" uom=% numeric_value=-11.3
molecule=CCN(CC)C(=O)CNS(=O)(=O)c1cc(Br)ccc1F metric="cytotoxicity at 10 µM" uom=% numeric_value=-45.9
molecule="Cc1ccc(O)c(CNC2CCc3nc(C(C)C)nn3C2)n1 (stereo not given)" metric="cytotoxicity at 10 µM" uom=% numeric_value=-8.54
molecule=O=C(Cc1ccccc1Br)NCC(=O)Nc1cn[nH]c1 metric="cytotoxicity at 10 µM" uom=% numeric_value=7.44
molecule=Cc1ccc(F)cc1S(=O)(=O)NCc1cccc(CS(C)(=O)=O)c1 metric="cytotoxicity at 10 µM" uom=% numeric_value=-10.6
molecule=COC(=O)CNC(=O)c1nc(Br)sc1C(C)C metric="cytotoxicity at 10 µM" uom=% numeric_value=-172
molecule=c1cc(CN2CCc3nc(N4CCOCC4)nc(NC4CC4)c3C2)co1 metric="cytotoxicity at 10 µM" uom=% numeric_value=12
molecule=Cc1nc(N2CC[C@@H](c3ccc4ccccc4c3)[C@H](O)C2)no1 metric="cytotoxicity at 10 µM" uom=% numeric_value=-3.65
molecule=COc1ccc(C(=O)NCc2ccc(C(=O)O)o2)cc1 metric="cytotoxicity at 10 µM" uom=% numeric_value=-0.806
molecule="CCN(CC1CN(Cc2ncc(C)o2)CCO1)c1cccnn1 (stereo not given)" metric="cytotoxicity at 10 µM" uom=% numeric_value=-0.343
molecule=Cc1ccc(-n2cc(CN3CCOCC3)c(-c3cccc(C)c3)n2)cc1 metric="cytotoxicity at 10 µM" uom=% numeric_value=-0.906
molecule=CC(=O)NCCCOc1c(C)cccc1Cl metric="cytotoxicity at 10 µM" uom=% numeric_value=0.238
molecule="COc1ccccc1CN(CC1CCCO1)C(=O)c1scnc1C (stereo not given)" metric="cytotoxicity at 10 µM" uom=% numeric_value=2.01
molecule="CC(C)n1cnnc1C1CCCN(S(=O)(=O)CCCF)C1 (stereo not given)" metric="cytotoxicity at 10 µM" uom=% numeric_value=7.39
molecule=CN(C)S(=O)(=O)N(Cc1cscn1)c1ccccc1 metric="cytotoxicity at 10 µM" uom=% numeric_value=-3.91
molecule=c1cc(CCn2ccc(NC3CCSCC3)n2)ccn1 metric="cytotoxicity at 10 µM" uom=% numeric_value=5.55
molecule=C[C@H](NS(C)(=O)=O)C(=O)NCc1cc(-c2ccco2)n(CC(F)(F)F)n1 metric="cytotoxicity at 10 µM" uom=% numeric_value=-13
molecule=CN(C)CC(=O)N1Cc2nc(C(=O)NCc3ccncc3)oc2C1 metric="cytotoxicity at 10 µM" uom=% numeric_value=-8.58
molecule="O=C(CCN1CCCC1C1CCCCC1)N1CCc2sccc2C1 (stereo not given)" metric="cytotoxicity at 10 µM" uom=% numeric_value=-11
molecule="COC(=O)COc1ccc(-c2noc(C3CCCO3)n2)cc1 (stereo not given)" metric="cytotoxicity at 10 µM" uom=% numeric_value=1.07
molecule="CC(NC(=O)NCCCn1ccnc1)c1ccc2c(c1)CCC(=O)N2 (stereo not given)" metric="cytotoxicity at 10 µM" uom=% numeric_value=-4.74
molecule="Cc1cc(CNCC2Cn3nnc(C)c3CO2)oc1C (stereo not given)" metric="cytotoxicity at 10 µM" uom=% numeric_value=6.65
molecule="CN(C)C(=O)CN1CCCC1c1nccnc1Nc1ccccn1 (stereo not given)" metric="cytotoxicity at 10 µM" uom=% numeric_value=-15
molecule=CO[C@H]1CNC[C@@H]1NC(=O)c1cc(C)nc2ccc(C)cc12 metric="cytotoxicity at 10 µM" uom=% numeric_value=1.25
molecule=CCCNC(=O)COc1cc(C)c2c(C)nn(-c3ccc(C)cc3)c2n1 metric="cytotoxicity at 10 µM" uom=% numeric_value=-0.217

----------
- Test description: Toxicity liver stage against HepG2, at 10uM
- Assay type: cell-based
- Parameters: test concentration 10 uM, cell line HepG2-A16-CD81EGFP
- Measurement conditions: human, HepG2-A16-CD81EGFP cells; read-out: INHIBITION
Metric: cytotoxicity at 10 µM (%)

smiles_record=O[C@H]1CN(Cc2cccc(C(F)(F)F)c2)CC[C@@]12CCCO2 numeric_value=-19.6
smiles_record=O=C(c1cccnc1)N1C[C@H]2CN(Cc3cccc(F)c3)C(=O)[C@H]2C1 numeric_value=-78.9
smiles_record=Cc1ccc(C(=O)Nc2c(C(=O)N(C)C)nn(C)c2C)cc1C numeric_value=11.8
smiles_record=Cc1ccc(NC(=O)Nc2cnc(N3CCN(C)CC3)nc2)c(Cl)c1 numeric_value=6.07
smiles_record=c1cnnc(N2CCC(c3nnc(Cn4ccnc4)n3C3CC3)CC2)c1 numeric_value=6.71
smiles_record=Cc1nnc(CN(Cc2ccc(Cl)c(Cl)c2)C2CC2)o1 numeric_value=4.85

----------
- Test description: Toxicity liver stage against HepG2, at 10uM
- Assay type: cell-based
- Set-up: test concentration 10 uM, cell line HepG2-A16-CD81EGFP
- Measurement conditions: human, HepG2-A16-CD81EGFP cells; read-out: INHIBITION
Metric: cytotoxicity at 10 µM (%)

compound="O=C(C1CCCO1)N1C[C@@H]2CCN(c3cnccn3)C[C@@H]2C1 (stereo partly specified)" numeric_value=-0.832
compound=CCc1nnc(CN2CCCN(C(=O)c3ccccn3)CC2)o1 numeric_value=-5.56
compound=O=C(NCCNc1ncccn1)c1ccc(Cl)s1 numeric_value=4.6
compound=Cc1ccc(C(=O)N2C[C@H]3CNC[C@H]3C2)cn1 numeric_value=-1.16
compound=COc1ccc(-n2cc3[nH][nH]c(=O)n3c2=O)cc1 numeric_value=10.3
compound=Cc1csc(N2CCN(C(=O)CCNc3ncccn3)CC2)n1 numeric_value=-10.1
compound=Cc1ccc(OCc2cccc(C(=O)N(C)CCC#N)c2)cn1 numeric_value=-3.3
compound=Cc1ncsc1CN1C[C@@H]2CCCO[C@@H]2[C@H](Nc2ccccn2)C1 numeric_value=2.31
compound="CCc1ccc(C(CNC(=O)c2c(C)noc2C)N(C)C)cc1 (stereo unspecified)" numeric_value=-7.83
compound="Cc1cncc(C2CCCN2CC(N)=O)n1 (stereo unspecified)" numeric_value=-5.3
compound=CN(C)C(=O)CN1C[C@H]2CC[C@@H](C1)N(C(=O)CCCn1cncn1)C2 numeric_value=0.612

----------
- Test description: Toxicity liver stage against HepG2, at 10uM
- Assay type: cell-based
- Parameters: test concentration 10 uM, cell line HepG2-A16-CD81EGFP
- Measurement conditions: human, HepG2-A16-CD81EGFP cells; read-out: INHIBITION
Metric: cytotoxicity at 10 µM

molecule=Cc1ccn(CCNc2ncnc3c2CCN(Cc2ncc[nH]2)CC3)n1 metric="cytotoxicity at 10 µM" result=-1.47%
molecule=CCCc1nnc2sc(-c3cc(C(C)C)n[nH]3)nn12 metric="cytotoxicity at 10 µM" result=17.7%
molecule=N#Cc1cccc(Cl)c1NCCc1n[nH]c(=O)[nH]1 metric="cytotoxicity at 10 µM" result=60.1%
molecule=Cn1cnc2c1CCN(CC(=O)N(Cc1ccsc1)C1CC1)C2 metric="cytotoxicity at 10 µM" result=-0.157%
molecule=COc1cccc(CN2C[C@@H]3CC[C@@](O)(c4ccccn4)[C@@H]3C2)c1OC metric="cytotoxicity at 10 µM" result=-9.94%
molecule=CCOc1ccc(Cl)c(C(=O)NCCc2ncc[nH]2)n1 metric="cytotoxicity at 10 µM" result=-11.2%
molecule="CN(C)c1ccc(C(O)CNS(=O)(=O)C2CC2)cc1 (stereo not drawn)" metric="cytotoxicity at 10 µM" result=-4.99%
molecule=O=C1NCC[C@]12CN(Cc1ccco1)C[C@H]2c1ccccc1 metric="cytotoxicity at 10 µM" result=-139%
molecule="CN(C(=O)NCCN1CCOCC1)C1CCN(c2ccccc2)C1=O (stereo not drawn)" metric="cytotoxicity at 10 µM" result=-11.6%
molecule=COc1ccc(C(=O)NCCN2CCC(c3cccs3)CC2)cc1OC metric="cytotoxicity at 10 µM" result=-0.493%
molecule="Cc1ccc(CC(=O)NC2CCN(c3cccc(Cl)c3)C2)cn1 (stereo not drawn)" metric="cytotoxicity at 10 µM" result=2.49%
molecule=c1ccc(OCCN2CCC(c3cnccn3)CC2)cc1 metric="cytotoxicity at 10 µM" result=7.56%
molecule="NC(c1ccc(Cl)cc1)c1cccs1 (stereo not drawn)" metric="cytotoxicity at 10 µM" result=-17.1%
molecule=CCOCCNCc1cc(O)c2cc(C)ccc2n1 metric="cytotoxicity at 10 µM" result=-2.04%
molecule="CCn1ncnc1C(C)Nc1cc(C)c2ccc(SC)cc2n1 (stereo not drawn)" metric="cytotoxicity at 10 µM" result=-0.995%
molecule=O=C(c1cccnc1O)N(CCO)Cc1cc(Br)ccc1F metric="cytotoxicity at 10 µM" result=6.27%
molecule="O=C(CCc1nc(Cl)n[nH]1)N1CCC2(CCCNC2=O)C1 (stereo not drawn)" metric="cytotoxicity at 10 µM" result=-6.37%
molecule=Cc1nn(C)c2cnn(CC(=O)NCc3ccc(F)cc3)c12 metric="cytotoxicity at 10 µM" result=8.27%
molecule=CN(C(=O)CNc1ccc(C#N)cc1)C1CCCCC1 metric="cytotoxicity at 10 µM" result=0.0479%
molecule=CCc1nc(C)sc1CN1CC[C@](O)(CC)[C@H](O)C1 metric="cytotoxicity at 10 µM" result=-5.61%
molecule=Cc1nnc(SCCNc2cc(C3CC3)ncn2)s1 metric="cytotoxicity at 10 µM" result=-6.67%
molecule="CCN(CC)Cc1ccc(C(=O)NC2CCc3cc(F)ccc32)o1 (stereo not drawn)" metric="cytotoxicity at 10 µM" result=-9.03%
molecule=N#Cc1cccc(N2CCC3(CCC(=O)N(CC(N)=O)C3)CC2)n1 metric="cytotoxicity at 10 µM" result=3.14%
molecule=Cc1cnn(C2CN(Cc3ccc4c(c3)OCCO4)C2)c1 metric="cytotoxicity at 10 µM" result=16.3%
molecule=O=C1CCC2(CCN(Cc3ccoc3)CC2)N1OCc1ccccc1F metric="cytotoxicity at 10 µM" result=2.37%
molecule="Cn1ncc2ccc(C3CCCN(C(=O)Cc4cccs4)C3)nc21 (stereo not drawn)" metric="cytotoxicity at 10 µM" result=10%
molecule="Cc1nsc(NC(=O)N2CCCCC2CCO)n1 (stereo not drawn)" metric="cytotoxicity at 10 µM" result=-45.7%
molecule=O=C(c1ccccn1)N1C[C@H]2CC[C@@H](C1)N(C(=O)Cc1cccs1)C2 metric="cytotoxicity at 10 µM" result=-1.13%
molecule=C[C@H](NC(=O)N1CCC(Cc2ccccc2)CC1)C(=O)O metric="cytotoxicity at 10 µM" result=-1.65%
molecule=O=C(c1cccnc1)N1CCc2c(nc(N3CCCC3)[nH]c2=O)C1 metric="cytotoxicity at 10 µM" result=4.51%
molecule=N#CCCN(C(=O)CCc1cscn1)c1ccc2c(c1)OCCO2 metric="cytotoxicity at 10 µM" result=-2.12%
molecule=Cc1ccccc1-c1cc(NC(=O)CC(C)C)n(CCO)n1 metric="cytotoxicity at 10 µM" result=7.47%
molecule=O=C(c1coc2ccccc12)N1CCS(=O)(=O)CC1 metric="cytotoxicity at 10 µM" result=2.64%
molecule=COc1ccc(Cn2c(Cc3c(C)n[nH]c3C)n[nH]c2=O)cc1 metric="cytotoxicity at 10 µM" result=-142%
molecule=O=C(CCS(=O)(=O)c1ccccc1)NCCCn1cccn1 metric="cytotoxicity at 10 µM" result=12%
molecule=CC(C)N(Cc1nc2c(cnn2C)c(=O)[nH]1)c1ccccc1 metric="cytotoxicity at 10 µM" result=-12.6%
molecule=CCOc1ccccc1C(=O)Nn1c(C)cc(C)cc1=O metric="cytotoxicity at 10 µM" result=-10.9%
molecule="O=C(O)C(c1ccc2c(c1)OCO2)N1CCCCCC1 (stereo not drawn)" metric="cytotoxicity at 10 µM" result=-0.293%
molecule=c1c(-c2nc(CN3CCOCC3)no2)nnn1CC1CCCCC1 metric="cytotoxicity at 10 µM" result=3.15%
molecule="Cc1ccc2c(c1)OCCCC2NCc1nnc2n1CCCCC2 (stereo not drawn)" metric="cytotoxicity at 10 µM" result=-7.89%
molecule="Cc1nc2c(c(=O)n1C)CN(C(=O)C1CCCN(C(N)=O)C1)C2 (stereo not drawn)" metric="cytotoxicity at 10 µM" result=-2.38%
molecule="CC(c1ccco1)N(C(=O)NCc1ccon1)C1CC1 (stereo not drawn)" metric="cytotoxicity at 10 µM" result=0.805%
molecule="COc1ccc(C(C)Nc2ncc(C(N)=O)cc2Cl)c(OC)c1 (stereo not drawn)" metric="cytotoxicity at 10 µM" result=19.1%
molecule=CCN(C(=O)c1cc2c([nH]c1=O)CCCC2=O)C1CCCCC1 metric="cytotoxicity at 10 µM" result=-4.07%
molecule=Cn1cc(-c2cc(C(=O)N3CCOCC3)c3ccc(F)cc3n2)cn1 metric="cytotoxicity at 10 µM" result=1.5%
molecule=Cc1nc2c(c(NC(C)C)n1)CCN(C(=O)c1cc[nH]n1)CC2 metric="cytotoxicity at 10 µM" result=6.71%
molecule="COc1cccc(N2CC3(CCN(C(=O)NC(C)C)C3)CC2=O)c1 (stereo not drawn)" metric="cytotoxicity at 10 µM" result=3.52%
molecule=CCOc1ncccc1CNC(=O)Nc1ccc(OC)c(OC)c1 metric="cytotoxicity at 10 µM" result=-3.82%
